Origin of measurements: ChEMBL document CHEMBL1201862

# Test system: KM12
# method notes: NCI tumour cell line growth inhibition, 48 h
Active and inactive are the calls of the source. No stated cut-off is given here; in the data, active = GI50 up to about 1.1 µM and inactive = higher.
I'd appreciate it if you could supply GI50 values for the items below.

C=CCOC(=O)N1[C@H]2C#C/C=C\C#C[C@]3(O)C(=O)C[C@H](C)[C@]24O[C@]43C2=CC(=O)C=CC21OC (stereo not given in full): 32.9 µM (inactive)
O=[N+]([O-])c1ccc(C2=NOC(c3ccccc3)N2C23CC4CC(CC(C4)C2)C3)cc1 (stereo not given): 27.4 µM (inactive)
CN(CCNC(=O)c1n[nH]c2c1ccc1ccccc12)CCNC(=O)c1n[nH]c2c1ccc1ccccc12: 2.14 µM (inactive)
Cc1oc2nc(N(C)C)n3cnnc3c2c1C: > 100 µM (inactive)
COc1cc(C(=O)C(CO)Oc2ccccc2OC)ccc1O (stereo not given): > 100 µM (inactive)

List GI50 for every entry below, keeping the order given.
1. CC(C)(C)c1cc(C2NCCO2)cc(C(C)(C)C)c1O (stereo not given)
2. COc1ccc(/N=C\c2ccc(N(CCC#N)CCC#N)cc2)cc1
3. COc1cc2c(c(OC)c1OC)C(=O)[C@@H](O)[C@H]2NC(N)=O

(A)
> 100 µM (inactive)
17.1 µM (inactive)
> 100 µM (inactive)

List GI50 for every entry below, keeping the order given.
1. O=C(NCCCCNc1cccccc1=O)OCc1ccccc1
2. C=CNC(=S)n1nc(-c2ccccc2NC(=O)C(F)(F)F)c(=O)n(C(=S)NC=C)c1=S

(A)
["> 100 µM (inactive)", "29.3 µM (inactive)"]

* * *

# Test system: 786-0
# method notes: NCI tumour cell line growth inhibition, 48 h
Active and inactive are the calls of the source. Rule as the data show it: active = GI50 up to about 1.1 µM and inactive = higher.
I'd appreciate it if you could supply GI50 values for the items below.

CC(C)(CC#N)c1cc(CC(C)(C)c2cc(CC(C)(C)c3cc(C(C)(C)C4(C)OCCO4)no3)no2)no1: 17 µM (inactive)
CN(CCNC(=O)c1nn(C)c2c1Cc1ccccc1-2)CCNC(=O)c1nn(C)c2c1Cc1ccccc1-2: 14.5 µM (inactive)
Nc1ncnc2oc(-c3cccs3)nc12: > 100 µM (inactive)
O=C(O)CN1CCN2CCCCCCCCN(CC1)CCN(CC(=O)O)CC2: > 100 µM (inactive)
O=C(/C=C/c1ccc(F)c(F)c1)OCCc1ccccc1: > 100 µM (inactive)
COC(=O)C(=O)C(C(=O)C1=NS(=O)(=O)c2cc(S(N)(=O)=O)c(Cl)cc2N1)c1nc2ccc(C(=O)c3ccccc3)cc2nc1O (configuration not stated): > 100 µM (inactive)
Nc1ccccc1/N=N/c1c(S(=O)(=O)O)cc2cc(S(=O)(=O)O)cc(O)c2c1O: 45.7 µM (inactive)
COc1ccc2nc3n(c2c1)C(c1c(F)cccc1Cl)SC3 (configuration not stated): > 100 µM (inactive)

List GI50 for every entry below, keeping the order given.
1. NC(CC(=O)Nc1cc(C(F)(F)F)ccc1Cl)=NO
2. COC1(O)C(=O)c2ccccc2OC1(OC)c1ccccc1 (configuration not stated)

(A)
["> 100 µM (inactive)", "> 100 µM (inactive)"]

List GI50 for every entry below, keeping the order given.
1. CN(/N=C/c1ccccn1)C1=NCCCN1
2. O=C1C2CC=CCC2C(=O)N1n1c(Cc2ccccc2)n[nH]c1=O (configuration not stated)
3. N#CC12C(=O)N3C(=NC(c4ccccc4)NC3c3ccccc3)C1(C#N)C(c1ccccc1)NC1=C2CCCC1 (configuration not stated)
4. O=C(COc1ccc(OCC(=O)N2C(=O)CC/C2=N\c2ccc(Cl)cc2)cc1)N1C(=O)CS/C1=N\c1ccc(Cl)cc1
5. CCOC(=O)c1ccc(/N=c2\oc3ccc(OC)cc3cc2-c2nc3ccccc3[nH]2)cc1
6. CCc1cc2c(oc3cc4ccccc4cc32)c(=O)[nH]1
7. CC1=NN(c2ccccc2)C(=O)C1=C1SCCCS1

(A)
["> 100 µM (inactive)", "> 100 µM (inactive)", "> 100 µM (inactive)", "> 100 µM (inactive)", "> 100 µM (inactive)", "> 10 µM (inactive)", "35.5 µM (inactive)"]

List GI50 for every entry below, keeping the order given.
1. CC(C)C1CC[C@@H](C)C[C@@]1(O)CC(N)=O (some centres not stated)
2. C=C1CC(C)(COc2cc(=O)oc3ccccc23)OC1=O (configuration not stated)
3. Cc1cccc2sc(NC(=O)c3cc([N+](=O)[O-])ccc3Cl)nc12
4. C=CCOC(=O)N1[C@H]2C#C/C=C\C#C[C@]3(O)C(=O)C[C@H](C)[C@]24O[C@]43C2=CC(=O)C=CC21OC (some centres not stated)
5. CC1(C)CC2(C)CC1CC2NC(=O)CCN1CCOCC1 (configuration not stated)

(A)
["> 100 µM (inactive)", "2.84 µM (inactive)", "1.89 µM (inactive)", "11.6 µM (inactive)", "> 100 µM (inactive)"]

List GI50 for every entry below, keeping the order given.
1. Cc1nnc2n1N=C(c1cc(F)c(Cl)cc1Cl)/C(=C/c1ccc3c(c1)OCO3)S2
2. O=[N+]([O-])c1cc(Br)cc2cc(Cl)cnc12

(A)
["47.4 µM (inactive)", "> 100 µM (inactive)"]

List GI50 for every entry below, keeping the order given.
1. COC(CC1(CCNc2ccccc2)C(=O)N(COCC[Si](C)(C)C)c2ccccc21)OC (configuration not stated)
2. COc1ccc(OC)c(/C(C)=N/NC(N)=S)c1
3. CC(=O)C1(O)CC2(c3ccccc3)C(=O)C1(c1ccccc1)C(c1ccccc1)=C2c1ccccc1 (configuration not stated)
4. N/C(=N\Nc1ccc(C(=O)O)cc1)c1cnccn1

(A)
1. 6.25 µM (inactive)
2. > 100 µM (inactive)
3. > 100 µM (inactive)
4. > 100 µM (inactive)

List GI50 for every entry below, keeping the order given.
1. O=C1C(Cl)C(c2ccc([N+](=O)[O-])cc2)N1n1cnc2ccccc2c1=O (configuration not stated)
2. O=C1C=CC(=O)c2c1ccc1c3ccccc3n(CCCCCCCCn3c4ccccc4c4ccc5c(c43)C(=O)C=CC5=O)c21
3. O=C(/C=C/c1ccccc1)/C=C/c1ccccc1O
4. CC(C)(C)c1cc(C2NCCO2)cc(C(C)(C)C)c1O (configuration not stated)
5. Cc1nnc2n1-c1ccccc1N(Cc1ccccc1)CC2
6. C=C[C@H]1CN2CCc3c([nH]c4cc(O)ccc34)[C@@H]2C[C@@H]1C[C@H]1c2[nH]c3ccccc3c2CCN1C
7. CCOC(=O)C1C(c2ccc(OC)cc2)c2c(nn(-c3ccccc3)c2O)CC1(O)OCC (configuration not stated)
8. CCC12CCCC(=O)N1C(CO)C(c1ccccc1)O2 (configuration not stated)

(A)
["20.7 µM (inactive)", "> 100 µM (inactive)", "16.7 µM (inactive)", "65.8 µM (inactive)", "87.7 µM (inactive)", "1.84 µM (inactive)", "63.4 µM (inactive)", "> 100 µM (inactive)"]

Value of GI50 reported for the compound Cc1[nH]nc(C(=O)N/N=C/c2ccccc2Cl)c1/N=N\N(C)C is 5.04 µM (inactive)

* * *

# Test system: EKVX
# method notes: NCI tumour cell line growth inhibition, 48 h
Active and inactive are the calls of the source. Cut-off read from the data, not from the text of the source: active = GI50 up to about 1.1 µM and inactive = higher.
I'd appreciate it if you could supply GI50 values for the items below.

Recorded results for 5 compounds are shown here.
O=c1c2cccc3cccc(c4n1CCN=4)c32: > 100 µM (inactive)
CSC1=N/C(=C\c2ccccc2)C(=O)N1CN1CCCCC1: 51.1 µM (inactive)
CCN(CC)CCSc1nc(-c2c[nH]c3nc(C)ccc3c2=O)n[nH]1: > 100 µM (inactive)
O=S(=O)(O)c1cc(Cl)c(O)c2ncc(Cl)cc12: 69 µM (inactive)
CCOC(=O)NN(C(=O)OCC)C(=C(c1ccccc1)N1CCOCC1)N(NC(=O)OCC)C(=O)OCC: > 100 µM (inactive)

List GI50 for every entry below, keeping the order given.
1. Cn1c(=O)nc2n(-c3ccc(Cl)c(C(F)(F)F)c3)c3ccccc3nc-2c1=O
2. CC(C)C1CC[C@@H](C)C[C@@]1(O)CC(N)=O (some centres undefined)
3. CC(=O)O[C@H]1CC[C@@]2(C)C(=CC[C@H]3[C@@H]4CC[C@H](c5cc(C(F)(F)F)n(C(C)=O)n5)[C@@]4(C)CC[C@@H]32)C1
4. CC(C)OP(=O)(OC(C)C)C(C(C)C)N(C)/C(N)=N\C1=NC(C(F)(F)F)(C(F)(F)F)N=C(C(C(F)(F)F)C(F)(F)F)O1 (centres undefined)

(A)
["35.1 µM (inactive)", "> 100 µM (inactive)", "7.28 µM (inactive)", "3.66 µM (inactive)"]

* * *

# Tested on: HT-29
# method notes: NCI tumour cell line growth inhibition, 48 h
Active and inactive are the calls of the source. Cut-off read from the data, not from the text of the source: active = GI50 up to about 1.1 µM and inactive = higher.
API: response.call in class 1 (active), class 0 (inactive)

CC1(C)OC(=O)C(C)(C)OC1=O: class 0
CC(C)(C)C(=C[S+]([O-])/N=C/c1ccccc1)C(C)(C)C (stereo unspecified): class 0
O=C(O)C1C2CCC(C2)C1c1ccccc1 (stereo unspecified): class 0
N=NCC(=O)OC(COCc1ccccc1)COCc1ccccc1: class 0
CC(=O)Nc1ccc2c3c(cc(O)c2c1)N(C(=O)CCCCCCC(=O)Nc1ccc2c4c(cc(O)c2c1)N(C(=O)OC(C)(C)C)CC4CCl)CC3CCl (stereo unspecified): class 1

(Q) Please share the test call associated with Clc1ccccc1/C=C/c1nsc(/C=C/c2ccccc2Cl)n1 .
(A) class 0

(Q) Please share the test call associated with O=C(O)c1ccc2c(c1)CC1(C2)Cc2ccccc2C1=O (stereo unspecified) .
(A) class 0

(Q) Please share the test call associated with COC(=O)C1CC2c3c(c4ccccc4n3C)CC(C1=O)N2C (stereo unspecified) .
(A) class 0
